Data origin, for the record: patent US20240366589A1

- Tested on: absorption of sodium from the intestinal lumen
- Assay: Inhibition of intestinal sodium absorption: urinary sodium (uNa) 16 h after single oral dose in rats
- Type: in vivo, rat
- Particulars: oral gavage, dose 3 mg/kg, 16 h post-dose
- Procedure: Inhibition of intestinal sodium and phosphate absorption. Urinary sodium concentration and fecal form were measured to assess the ability of selected example compounds to inhibit the absorption of sodium from the intestinal lumen. […] After dose administration animals were placed in individual metabolic cages where they were also fed the same chow in meal form and watered ad libitum. At 16 h post-dose, the urine samples were collected and fecal form was assessed by two independent observations. […]
Give Urine Na % of control for every item shown.
Report as a plain number; the unit % is understood.

Prompt line: Annotate the molecule CC(C)CCC[C@@H](C)[C@H]1CC[C@H]2[C@@H]3CC=C4C[C@@H](OC(=O)NCCOCCOCCNC(=O)N(CCNC(=O)NCCOCCOCCNS(=O)(=O)c5cccc([C@@H]6CN(C)Cc7c(Cl)cc(Cl)cc76)c5)CCNC(=O)NCCOCCOCCNS(=O)(=O)c5cccc([C@@H]6CN(C)Cc7c(Cl)cc(Cl)cc76)c5)CC[C@]4(C)[C@H]3CC[C@]12C with its measured Urine Na % of control.
Response line: 92

Prompt line: Annotate the molecule CN(C)[C@H]1Cc2c(Cl)cc(Cl)cc2[C@@H]1Oc1ccc(S(=O)(=O)NCCOCCOCCNC(=O)CCC(C)(CCC(=O)NCCOCCOCCNS(=O)(=O)c2ccc(O[C@H]3c4cc(Cl)cc(Cl)c4C[C@@H]3N(C)C)cc2)NC(=O)CCC(=O)O)cc1 with its measured Urine Na % of control.
Response line: 40

Prompt line: Indicate the recorded Urine Na % of control value for this molecule: CN1Cc2c(Cl)cc(Cl)cc2[C@H](c2cccc(S(=O)(=O)NCCOCCOCCNC(=O)NCCCCNC(=O)NCCOCCOCCNS(=O)(=O)c3cccc([C@@H]4CN(C)Cc5c(Cl)cc(Cl)cc54)c3)c2)C1
Response line: 53

Prompt line: Using known records, supply Urine Na % of control for CN1Cc2c(Cl)cc(Cl)cc2[C@H](c2cccc(S(=O)(=O)NCCOCCOCCNC(=O)CCC(CCC(=O)NCCOCCOCCNS(=O)(=O)c3cccc([C@@H]4CN(C)Cc5c(Cl)cc(Cl)cc54)c3)(CCC(=O)NCCOCCOCCNS(=O)(=O)c3cccc([C@@H]4CN(C)Cc5c(Cl)cc(Cl)cc54)c3)NC(=O)Cn3ccnc3)c2)C1
Response line: 112

Prompt line: Indicate the recorded Urine Na % of control value for this molecule: CN1Cc2c(Cl)cc(Cl)cc2[C@H](c2cccc(S(=O)(=O)NCCOCCOCCN(C)C(=O)NCCCN(CCCNC(=O)N(C)CCOCCOCCNS(=O)(=O)c3cccc([C@@H]4CN(C)Cc5c(Cl)cc(Cl)cc54)c3)CCCNC(=O)N(C)CCOCCOCCNS(=O)(=O)c3cccc([C@@H]4CN(C)Cc5cc(Cl)cc(Cl)c54)c3)c2)C1
Response line: 38

Prompt line: Give the reported Urine Na % of control for this molecule. CN1Cc2c(Cl)cc(Cl)cc2[C@H](c2cccc(S(=O)(=O)NCCOCCOCCNC(=O)NCCN(CCNC(=O)NCCOCCOCCNS(=O)(=O)c3cccc([C@@H]4CN(C)Cc5c(Cl)cc(Cl)cc54)c3)C(=O)NCCOCCOCCN)c2)C1
Response line: 13

Prompt line: Identify measured Urine Na % of control corresponding to N[C@@H]1CCCN([C@H]2Cc3c(Cl)cc(Cl)cc3[C@@H]2Oc2ccc(S(=O)(=O)NCCOCCOCCNC(=O)NCCCCNC(=O)NCCOCCOCCNS(=O)(=O)c3ccc(O[C@H]4c5cc(Cl)cc(Cl)c5C[C@@H]4N4CCC[C@@H](N)C4)cc3)cc2)C1
Response line: 94
